test system: Trypanosoma brucei rhodesiense (Tbr), STIB 900 strain; experiment: In vitro activity against Trypanosoma brucei rhodesiense (bloodstream trypomastigotes, STIB 900 strain); assay type: cell-based; conditions: Trypanosoma brucei rhodesiense; mean of two separate IC50 determinations ± absolute deviation; compounds tested as bis- or mono-trifluoroacetates; read-out: Tbr IC50
pIC50: −log10 of the molar value.
READOUT_NAME: pIC50

# MOLECULE, MEASURED_RESULT
records = [
    ("CN[C@H]1CC[C@]23C[C@]24CC[C@]2(C)[C@@H](C(C)=O)[C@H](OC)C[C@@]2(C)[C@@H]4CC[C@H]3C1 [Compound 16, obtusibuxeine-A]", 4.66),
    ("CN[C@H]1[C@H](O)C[C@]23C[C@]24CC[C@]2(C)[C@@H]([C@H](C)N(C)C)CC[C@@]2(C)[C@@H]4CC[C@H]3[C@]1(C)COC(=O)c1cc(OC)c(OC)c(OC)c1 [Compound 5]", 5.80),
    ("CN[C@@H](C)[C@H]1CC[C@@]2(C)[C@@H]3CC[C@H]4[C@]5(C)COCN(C)[C@H]5CC[C@@]45C[C@@]35CC[C@]12C [Compound 15, N20-demethyl deoxycyclobuxoxazine-A]", 5.18),
    ("CC(=O)O[C@H]1[C@@H](O)[C@@H]2C(=CC[C@]3(C)[C@@H]([C@H](C)N(C)C)CC[C@@]23C)CC2=CC[C@H](NC(=O)c3ccccc3)C(C)(C)[C@@H]21 [Compound 23, 16-deoxyobtusidienolamine-A]", 5.19),
    ("CN[C@@H](C)[C@H]1CC[C@@]2(C)[C@@H]3C=C[C@H]4C(C)(C)[C@@H](N(C)C)CC[C@@]45C[C@@]35CC[C@]12C [Compound 12, deoxycyclovirobuxeine-B]", 6.10),
    ("CC(=O)OC1C2OC3(C=CC(NC(=O)c4ccccc4)C(C)(C)C13)CC1=CCC3(C)C(C(C)N(C)C)C(O)CC3(C)C12 (stereo not shown) [Compound 21, obtusiepoxamine-A]", 5.66),
    ("CN[C@H]1[C@H](O)C[C@]23C[C@]24CC[C@]2(C)[C@@H]([C@H](C)N(C)C)CC[C@@]2(C)[C@@H]4CC[C@H]3C1(C)C [Compound 1, cycloprotobuxoline-C]", 5.17),
]

###

experiment: Cytotoxicity assay against rat skeletal myoblasts (L6 cell line); format: cell-based; conditions: Table 1, crude extracts and acid-base fractions, mean of two determinations ± absolute deviation, read-out: IC50 Cytotox. L6
READOUT_NAME: IC50 (ng/mL)

# COMPOUND, MEASURED_RESULT
rows = [
    ("COc1cc([C@@H]2c3cc4c(cc3[C@H](O)[C@H]3COC(=O)[C@H]23)OCO4)cc(OC)c1OC [podophyllotoxin, reference compound]", 7),
]

###

assay: Cytotoxicity assay against rat skeletal myoblasts (L6 cell line); assay type: cell-based
READOUT_NAME: IC50 (µM)

# SMILES, BOUND_SIGN, MEASURED_RESULT
rows = [
    ("CN[C@H]1[C@H](O)C[C@]23C[C@]24CC[C@]2(C)[C@@H]([C@H](C)N(C)C)CC[C@@]2(C)[C@@H]4CC[C@H]3C1(C)C", ">", 100),
    ("CN[C@H]1CC[C@]23C[C@]24CC[C@]2(C)[C@@H](C(C)=O)[C@H](OC)C[C@@]2(C)[C@@H]4CC[C@H]3C1", "=", 45),
]
